test system: 772245-204-R-J1-PDC complex spheroid growth; test: Anticancer human tumor 772245-204-R-J1-PDC patient-derived rhabdomyosarcoma cell line growth inhibition [Asc]; conditions: second compound 0.01 µM; first compound 0.316 µM; hits give low values
Property: viability, T/C (%)

- Compound: "C=C(F)C(=O)N1CCN(c2nc(OCC3CCCN3C)nc3c2CCN(c2cccc4cccc(Cl)c24)C3)CC1CC#N (stereo not drawn) + CNC(C)C(=O)NC1CN(S(=O)(=O)c2cccc(S(=O)(=O)N3CCC4CCC(C(=O)NC(c5ccccc5)c5ccccc5)N4C(=O)C(NC(=O)C(C)NC)C3)c2)CCC2CCC(C(=O)NC(c3ccccc3)c3ccccc3)N2C1=O"
  Reported measurement: 91.3
- Compound: "C#Cc1c(F)ccc2cc(O)cc(-c3ncc4c(N5CC6CCC(C5)N6)nc(OCC56CCCN5CC(F)C6)nc4c3F)c12 (stereo not drawn) + CNC(C)C(=O)NC1CN(S(=O)(=O)c2cccc(S(=O)(=O)N3CCC4CCC(C(=O)NC(c5ccccc5)c5ccccc5)N4C(=O)C(NC(=O)C(C)NC)C3)c2)CCC2CCC(C(=O)NC(c3ccccc3)c3ccccc3)N2C1=O"
  Reported measurement: 91
- Compound: "O=C(c1ccc(F)c(F)c1Nc1ccc(I)cc1F)N1CC(O)([C@@H]2CCCCN2)C1 + CNC(C)C(=O)NC1CN(S(=O)(=O)c2cccc(S(=O)(=O)N3CCC4CCC(C(=O)NC(c5ccccc5)c5ccccc5)N4C(=O)C(NC(=O)C(C)NC)C3)c2)CCC2CCC(C(=O)NC(c3ccccc3)c3ccccc3)N2C1=O"
  Reported measurement: 97.9

---

test system: 772245-204-R-J1-PDC complex spheroid growth; assay: Anticancer human tumor 772245-204-R-J1-PDC cell line growth inhibition [Asc]; conditions: second compound 1 µM; first compound 0.01 µM; hits give low values;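 further: compound exposure lasted seven days; 100% = DMSO vehicle control viability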

- Molecule: "O=C(c1ccc(F)c(F)c1Nc1ccc(I)cc1F)N1CC(O)([C@@H]2CCCCN2)C1 + Cc1c(S(C)(=O)=O)c(-c2cc(F)cc(N3CCN(c4ccc(NS(=O)(=O)c5ccc(NC(CCN6CCC(C(=O)OCCCP(=O)(O)O)CC6)CSc6ccccc6)c(S(=O)(=O)C(F)(F)F)c5)cc4)CC3)c2)c(-c2ccc(Cl)cc2)n1C(C)C"
  Subject of test: "772245-204-R-J1-PDC complex spheroid growth"
  viability, T/C (%): 66

---

test system: 772245-204-R-J1-PDC complex spheroid growth; experiment: Anticancer human tumor 772245-204-R-J1-PDC cell line growth inhibition [Asc]; conditions: second compound 10 µM; first compound 10 µM; active = viability on the fitted dose curve at most 10% of control; inactive = the rest;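 further: compound exposure lasted seven days; 100% = DMSO vehicle control viability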
Outcome codes: true for active, false for inactive

- Molecule: "O=C(c1cc(Cc2n[nH]c(=O)c3ccccc23)ccc1F)N1CCN(C(=O)C2CC2)CC1 + Cc1c(S(C)(=O)=O)c(-c2cc(F)cc(N3CCN(c4ccc(NS(=O)(=O)c5ccc(NC(CCN6CCC(C(=O)OCCCP(=O)(O)O)CC6)CSc6ccccc6)c(S(=O)(=O)C(F)(F)F)c5)cc4)CC3)c2)c(-c2ccc(Cl)cc2)n1C(C)C"
  Answer label: "true"
- Molecule: "C#Cc1c(F)ccc2cc(O)cc(-c3ncc4c(N5CC6CCC(C5)N6)nc(OCC56CCCN5CC(F)C6)nc4c3F)c12 (centres undefined) + Cc1c(S(C)(=O)=O)c(-c2cc(F)cc(N3CCN(c4ccc(NS(=O)(=O)c5ccc(NC(CCN6CCC(C(=O)OCCCP(=O)(O)O)CC6)CSc6ccccc6)c(S(=O)(=O)C(F)(F)F)c5)cc4)CC3)c2)c(-c2ccc(Cl)cc2)n1C(C)C"
  Answer label: "false"
- Molecule: "C=C(F)C(=O)N1CCN(c2nc(OCC3CCCN3C)nc3c2CCN(c2cccc4cccc(Cl)c24)C3)CC1CC#N (centres undefined) + Cc1c(S(C)(=O)=O)c(-c2cc(F)cc(N3CCN(c4ccc(NS(=O)(=O)c5ccc(NC(CCN6CCC(C(=O)OCCCP(=O)(O)O)CC6)CSc6ccccc6)c(S(=O)(=O)C(F)(F)F)c5)cc4)CC3)c2)c(-c2ccc(Cl)cc2)n1C(C)C"
  Answer label: "true"
- Molecule: "C=CC(=O)N1CCN(c2nc(=O)n(-c3c(C)ccnc3C(C)C)c3nc(-c4c(O)cccc4F)c(F)cc23)C(C)C1 (centres undefined) + Cc1c(S(C)(=O)=O)c(-c2cc(F)cc(N3CCN(c4ccc(NS(=O)(=O)c5ccc(NC(CCN6CCC(C(=O)OCCCP(=O)(O)O)CC6)CSc6ccccc6)c(S(=O)(=O)C(F)(F)F)c5)cc4)CC3)c2)c(-c2ccc(Cl)cc2)n1C(C)C"
  Answer label: "true"

---

test system: 772245-204-R-J1-PDC complex spheroid growth; assay: Anticancer human tumor 772245-204-R-J1-PDC cell line growth inhibition [Asc]; details: second compound 3 µM; first compound 0.00316 µM; hits give low values;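 further: compound exposure lasted seven days; 100% = DMSO vehicle control viability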

- Molecule: "NC1CCC(NC2CC2c2ccccc2)CC1 (stereo unspecified) + CCN1C(C(=O)NC23CCC(C(=O)O)(CC2)CC3)C(c2cccc(Cl)c2F)C2(C(=O)Nc3cc(Cl)ccc32)C12CCCCC2"
  viability, T/C, %: 73.2
- Molecule: "COc1c(OCCCN2CCOCC2)ccc2c3n(c(=NC(=O)c4cnc(N)nc4)nc12)CCN3 + CCN1C(C(=O)NC23CCC(C(=O)O)(CC2)CC3)C(c2cccc(Cl)c2F)C2(C(=O)Nc3cc(Cl)ccc32)C12CCCCC2"
  viability, T/C, %: 69.3
- Molecule: "O=C(c1ccc(F)c(F)c1Nc1ccc(I)cc1F)N1CC(O)([C@@H]2CCCCN2)C1 + CCN1C(C(=O)NC23CCC(C(=O)O)(CC2)CC3)C(c2cccc(Cl)c2F)C2(C(=O)Nc3cc(Cl)ccc32)C12CCCCC2"
  viability, T/C, %: 90.9
- Molecule: "Cn1ncnc1[C@H]1c2n[nH]c(=O)c3cc(F)cc(c23)N[C@@H]1c1ccc(F)cc1 + CCN1C(C(=O)NC23CCC(C(=O)O)(CC2)CC3)C(c2cccc(Cl)c2F)C2(C(=O)Nc3cc(Cl)ccc32)C12CCCCC2"
  viability, T/C, %: 75.8
- Molecule: "CCN1CCN(Cc2ccc(Nc3ncc(F)c(-c4cc(F)c5nc(C)n(C(C)C)c5c4)n3)nc2)CC1 + CCN1C(C(=O)NC23CCC(C(=O)O)(CC2)CC3)C(c2cccc(Cl)c2F)C2(C(=O)Nc3cc(Cl)ccc32)C12CCCCC2"
  viability, T/C, %: 77.9
- Molecule: "CNC(C)C(=O)NC1CN(S(=O)(=O)c2cccc(S(=O)(=O)N3CCC4CCC(C(=O)NC(c5ccccc5)c5ccccc5)N4C(=O)C(NC(=O)C(C)NC)C3)c2)CCC2CCC(C(=O)NC(c3ccccc3)c3ccccc3)N2C1=O (stereo unspecified) + CCN1C(C(=O)NC23CCC(C(=O)O)(CC2)CC3)C(c2cccc(Cl)c2F)C2(C(=O)Nc3cc(Cl)ccc32)C12CCCCC2"
  viability, T/C, %: 72.8

---

test system: 772245-204-R-J1-PDC complex spheroid growth; test: Anticancer human tumor 772245-204-R-J1-PDC cell line growth inhibition [Asc]; conditions: second compound 0.316 µM; first compound 0.0949 µM; hits give low values;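 further: compound exposure lasted seven days; 100% = DMSO vehicle control viability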

- Compound: "NC(=O)C(=Cn1cnc(-c2cc(C(F)(F)F)cc(C(F)(F)F)c2)n1)c1cncnc1 + CNC(C)C(=O)NC1CN(S(=O)(=O)c2cccc(S(=O)(=O)N3CCC4CCC(C(=O)NC(c5ccccc5)c5ccccc5)N4C(=O)C(NC(=O)C(C)NC)C3)c2)CCC2CCC(C(=O)NC(c3ccccc3)c3ccccc3)N2C1=O"
  viability, T/C [%]: 62
- Compound: "Cc1nc(N2CCC3(CC2)COC(C)C3N)c(CO)nc1Sc1ccnc(N)c1Cl (stereo unspecified) + CNC(C)C(=O)NC1CN(S(=O)(=O)c2cccc(S(=O)(=O)N3CCC4CCC(C(=O)NC(c5ccccc5)c5ccccc5)N4C(=O)C(NC(=O)C(C)NC)C3)c2)CCC2CCC(C(=O)NC(c3ccccc3)c3ccccc3)N2C1=O"
  viability, T/C [%]: 91.4
- Compound: "CCN1C(C(=O)NC23CCC(C(=O)O)(CC2)CC3)C(c2cccc(Cl)c2F)C2(C(=O)Nc3cc(Cl)ccc32)C12CCCCC2 (stereo unspecified) + CNC(C)C(=O)NC1CN(S(=O)(=O)c2cccc(S(=O)(=O)N3CCC4CCC(C(=O)NC(c5ccccc5)c5ccccc5)N4C(=O)C(NC(=O)C(C)NC)C3)c2)CCC2CCC(C(=O)NC(c3ccccc3)c3ccccc3)N2C1=O"
  viability, T/C [%]: 98.6
- Compound: "CCN1C(C(=O)NC23CCC(C(=O)O)(CC2)CC3)C(c2cccc(Cl)c2F)C2(C(=O)Nc3cc(Cl)ccc32)C12CCCCC2 (stereo unspecified) + Cc1c(S(C)(=O)=O)c(-c2cc(F)cc(N3CCN(c4ccc(NS(=O)(=O)c5ccc(NC(CCN6CCC(C(=O)OCCCP(=O)(O)O)CC6)CSc6ccccc6)c(S(=O)(=O)C(F)(F)F)c5)cc4)CC3)c2)c(-c2ccc(Cl)cc2)n1C(C)C"
  viability, T/C [%]: 67.2
- Compound: "NC(=O)C(=Cn1cnc(-c2cc(C(F)(F)F)cc(C(F)(F)F)c2)n1)c1cncnc1 + Cc1c(S(C)(=O)=O)c(-c2cc(F)cc(N3CCN(c4ccc(NS(=O)(=O)c5ccc(NC(CCN6CCC(C(=O)OCCCP(=O)(O)O)CC6)CSc6ccccc6)c(S(=O)(=O)C(F)(F)F)c5)cc4)CC3)c2)c(-c2ccc(Cl)cc2)n1C(C)C"
  viability, T/C [%]: 10.3
- Compound: "Cc1nc(N2CCC3(CC2)COC(C)C3N)c(CO)nc1Sc1ccnc(N)c1Cl (stereo unspecified) + Cc1c(S(C)(=O)=O)c(-c2cc(F)cc(N3CCN(c4ccc(NS(=O)(=O)c5ccc(NC(CCN6CCC(C(=O)OCCCP(=O)(O)O)CC6)CSc6ccccc6)c(S(=O)(=O)C(F)(F)F)c5)cc4)CC3)c2)c(-c2ccc(Cl)cc2)n1C(C)C"
  viability, T/C [%]: 70.9
